# TGT: Glutamate receptor ionotropic, AMPA (Rattus norvegicus, UniProt P19490+P19491+P19492+P19493)
IC50 less than 8 µM is MET; IC50 greater than or equal to 8 µM is NOT MET.

{"columns": ["COMPOUND", "CLASS ASSIGNMENT"],
 "data": [
  ["CC(C)N1CCc2c([N+](=O)[O-])cc3[nH]c(=O)c(=O)[nH]c3c2C1", "MET"],
  ["CCC(C)CN1CCc2c(Br)cc3nc(O)c(O)nc3c2C1 (stereo not given)", "NOT MET"],
  ["CC(C)CCN1CCc2c(Br)cc3nc(O)c(O)nc3c2C1", "NOT MET"],
  ["CN1CCc2c([N+](=O)[O-])cc3[nH]c(=O)c(=O)[nH]c3c2C1", "MET"],
  ["CCN1CCc2c([N+](=O)[O-])cc3[nH]c(=O)c(=O)[nH]c3c2C1", "MET"],
  ["CN1CCc2c(c([N+](=O)[O-])cc3[nH]c(=O)c(=O)[nH]c23)C1", "NOT MET"],
  ["CC(C)CCN1CCc2c([N+](=O)[O-])cc3[nH]c(=O)c(=O)[nH]c3c2C1", "MET"],
  ["CCN1CCc2c(c([N+](=O)[O-])cc3nc(O)c(O)nc23)C1", "NOT MET"],
  ["CCC(C)N1CCc2c([N+](=O)[O-])cc3[nH]c(=O)c(=O)[nH]c3c2C1 (stereo not given)", "NOT MET"]
]}

* * *

# key: entry, value: pIC50
# TGT: Glutamate receptor ionotropic, AMPA (Rattus norvegicus, UniProt P19490+P19491+P19492+P19493)
pIC50: −log10 of the molar value.
ENDPOINT LABEL: pIC50

{"columns": ["MOLECULE", "RELATION QUALIFIER", "RESULT"],
 "data": [
  ["CC(C)CCN1CCc2ccc3nc(O)c(O)nc3c2C1", "=", 3.91],
  ["CCCCCCCN1CCc2c(c([N+](=O)[O-])cc3[nH]c(=O)c(=O)[nH]c23)C1", "=", 5.24],
  ["CCN1CCc2ccc3[nH]c(=O)c(=O)[nH]c3c2C1", "=", 4.39],
  ["COC(=O)CC1c2ccc(Cl)cc2NC(=O)C1[N+](=O)[O-] (stereo unspecified)", "=", 3.86],
  ["Oc1nc2ccc3c(c2nc1O)CCNC3", "=", 4.92],
  ["CN1CCc2c(c(S(=O)(=O)c3ccccc3)cc3nc(O)c(O)nc23)C1", "=", 4.02],
  ["O=c1[nH]c2cc(-n3ccnc3)c([N+](=O)[O-])cc2[nH]c1=O [YM-90K]", "=", 6.70],
  ["CCCN1CCc2c(c(Br)cc3nc(O)c(O)nc23)C1", "=", 5.96],
  ["CCCN1CCc2c(ccc3[nH]c(=O)c(=O)[nH]c23)C1", "=", 4.74],
  ["CCC(C)N1CCc2ccc3nc(O)c(O)nc3c2C1 (stereo unspecified)", "<", 4.00],
  ["CN1CCc2c(Br)cc3[nH]c(=O)c(=O)[nH]c3c2C1", "=", 5.55]
]}

* * *

# TGT: Glutamate receptor ionotropic, AMPA (Rattus norvegicus, UniProt P19491+P19492+P19493+P19490)
# Sequence (P19491 whole entry): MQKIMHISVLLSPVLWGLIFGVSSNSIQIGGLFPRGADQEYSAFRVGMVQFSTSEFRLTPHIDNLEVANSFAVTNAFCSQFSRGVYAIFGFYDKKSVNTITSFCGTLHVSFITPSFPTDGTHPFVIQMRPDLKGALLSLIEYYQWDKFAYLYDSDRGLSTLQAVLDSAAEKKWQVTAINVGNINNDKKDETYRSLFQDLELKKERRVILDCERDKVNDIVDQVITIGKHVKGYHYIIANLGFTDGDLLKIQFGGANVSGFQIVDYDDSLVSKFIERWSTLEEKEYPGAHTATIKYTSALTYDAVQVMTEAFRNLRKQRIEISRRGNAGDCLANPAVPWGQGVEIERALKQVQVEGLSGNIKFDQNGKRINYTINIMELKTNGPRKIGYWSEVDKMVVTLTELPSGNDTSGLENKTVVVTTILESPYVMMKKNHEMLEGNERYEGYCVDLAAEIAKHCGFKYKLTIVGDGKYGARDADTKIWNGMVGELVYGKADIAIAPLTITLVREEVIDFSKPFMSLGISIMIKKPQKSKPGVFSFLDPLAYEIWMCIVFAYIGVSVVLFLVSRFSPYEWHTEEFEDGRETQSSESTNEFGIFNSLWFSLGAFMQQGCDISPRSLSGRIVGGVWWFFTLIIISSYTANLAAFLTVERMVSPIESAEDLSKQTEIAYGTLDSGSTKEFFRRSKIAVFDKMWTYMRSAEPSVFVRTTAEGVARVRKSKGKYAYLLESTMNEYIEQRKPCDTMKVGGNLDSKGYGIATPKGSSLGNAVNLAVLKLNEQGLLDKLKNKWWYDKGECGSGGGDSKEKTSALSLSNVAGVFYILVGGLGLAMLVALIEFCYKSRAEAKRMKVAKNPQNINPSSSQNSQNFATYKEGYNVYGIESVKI
# Sequence (P19492 whole entry): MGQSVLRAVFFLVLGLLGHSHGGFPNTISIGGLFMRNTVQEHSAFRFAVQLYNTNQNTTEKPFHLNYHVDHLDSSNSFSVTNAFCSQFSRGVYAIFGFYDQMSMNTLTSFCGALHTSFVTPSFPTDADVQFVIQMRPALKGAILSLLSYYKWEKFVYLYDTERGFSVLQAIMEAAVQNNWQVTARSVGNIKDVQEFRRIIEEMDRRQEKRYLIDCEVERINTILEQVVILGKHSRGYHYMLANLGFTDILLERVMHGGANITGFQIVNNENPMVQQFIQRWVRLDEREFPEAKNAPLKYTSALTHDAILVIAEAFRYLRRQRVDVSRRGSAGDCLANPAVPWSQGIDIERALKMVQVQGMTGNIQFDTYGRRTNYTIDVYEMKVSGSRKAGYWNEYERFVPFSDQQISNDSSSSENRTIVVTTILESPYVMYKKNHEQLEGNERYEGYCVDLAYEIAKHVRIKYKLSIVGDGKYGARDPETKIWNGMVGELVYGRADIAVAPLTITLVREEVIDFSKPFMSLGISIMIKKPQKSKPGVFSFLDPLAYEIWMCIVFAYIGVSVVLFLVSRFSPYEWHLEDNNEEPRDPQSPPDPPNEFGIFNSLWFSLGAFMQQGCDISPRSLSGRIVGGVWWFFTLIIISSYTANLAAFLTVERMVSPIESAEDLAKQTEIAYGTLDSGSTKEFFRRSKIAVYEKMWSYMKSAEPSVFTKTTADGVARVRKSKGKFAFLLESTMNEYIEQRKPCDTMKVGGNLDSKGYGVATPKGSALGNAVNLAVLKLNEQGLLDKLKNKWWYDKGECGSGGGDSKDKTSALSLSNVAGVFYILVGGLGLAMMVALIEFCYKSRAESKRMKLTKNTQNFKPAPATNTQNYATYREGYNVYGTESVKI
# Sequence (P19493 whole entry): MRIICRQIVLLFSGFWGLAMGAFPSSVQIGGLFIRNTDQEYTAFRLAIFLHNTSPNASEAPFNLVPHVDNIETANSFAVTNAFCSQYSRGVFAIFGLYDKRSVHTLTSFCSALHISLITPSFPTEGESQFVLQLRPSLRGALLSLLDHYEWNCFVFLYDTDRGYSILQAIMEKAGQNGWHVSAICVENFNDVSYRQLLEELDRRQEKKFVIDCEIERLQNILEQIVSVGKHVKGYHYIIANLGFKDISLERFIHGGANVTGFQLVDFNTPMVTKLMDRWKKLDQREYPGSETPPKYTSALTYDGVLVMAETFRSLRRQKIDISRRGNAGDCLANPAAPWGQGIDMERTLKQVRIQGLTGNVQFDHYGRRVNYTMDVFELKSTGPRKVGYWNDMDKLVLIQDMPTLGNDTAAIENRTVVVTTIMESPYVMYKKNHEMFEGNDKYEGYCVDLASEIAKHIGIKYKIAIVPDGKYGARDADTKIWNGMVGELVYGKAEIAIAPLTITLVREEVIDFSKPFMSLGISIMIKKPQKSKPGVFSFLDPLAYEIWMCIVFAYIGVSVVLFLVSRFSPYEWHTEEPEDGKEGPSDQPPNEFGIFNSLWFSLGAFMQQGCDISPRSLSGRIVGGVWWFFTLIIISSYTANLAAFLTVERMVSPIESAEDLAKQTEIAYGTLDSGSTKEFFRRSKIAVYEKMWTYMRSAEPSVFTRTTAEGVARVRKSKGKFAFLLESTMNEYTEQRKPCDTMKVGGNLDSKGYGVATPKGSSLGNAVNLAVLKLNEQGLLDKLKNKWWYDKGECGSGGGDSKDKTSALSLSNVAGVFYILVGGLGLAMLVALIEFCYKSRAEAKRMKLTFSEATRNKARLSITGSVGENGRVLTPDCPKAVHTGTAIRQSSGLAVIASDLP
# Sequence (P19490 whole entry): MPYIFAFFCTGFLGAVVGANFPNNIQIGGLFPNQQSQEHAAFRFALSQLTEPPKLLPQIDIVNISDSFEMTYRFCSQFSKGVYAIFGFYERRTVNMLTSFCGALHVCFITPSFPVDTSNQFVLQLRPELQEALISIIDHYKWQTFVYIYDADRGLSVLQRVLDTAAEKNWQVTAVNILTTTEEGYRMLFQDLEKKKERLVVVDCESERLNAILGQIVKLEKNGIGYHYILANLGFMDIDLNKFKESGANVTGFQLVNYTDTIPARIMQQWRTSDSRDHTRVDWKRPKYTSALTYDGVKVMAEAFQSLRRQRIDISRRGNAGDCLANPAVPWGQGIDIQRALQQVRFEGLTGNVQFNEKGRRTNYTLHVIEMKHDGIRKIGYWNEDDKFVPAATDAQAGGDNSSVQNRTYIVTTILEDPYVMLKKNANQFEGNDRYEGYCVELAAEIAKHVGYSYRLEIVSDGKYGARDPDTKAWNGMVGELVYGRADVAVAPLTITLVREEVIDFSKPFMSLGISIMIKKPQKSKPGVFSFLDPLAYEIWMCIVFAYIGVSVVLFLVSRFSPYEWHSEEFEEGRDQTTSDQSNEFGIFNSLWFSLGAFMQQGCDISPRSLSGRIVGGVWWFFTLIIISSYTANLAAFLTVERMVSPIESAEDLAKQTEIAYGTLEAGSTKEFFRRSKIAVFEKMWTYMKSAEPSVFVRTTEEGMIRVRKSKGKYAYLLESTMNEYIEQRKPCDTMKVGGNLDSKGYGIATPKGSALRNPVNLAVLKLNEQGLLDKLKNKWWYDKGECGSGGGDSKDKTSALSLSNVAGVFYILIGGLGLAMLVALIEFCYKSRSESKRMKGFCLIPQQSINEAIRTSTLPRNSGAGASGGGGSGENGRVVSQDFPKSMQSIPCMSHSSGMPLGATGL

{"columns": ["SMILES INPUT", "UNIT OF MEASURE", "IC50"],
 "data": [
  ["CN1CCc2c([N+](=O)[O-])cc3[nH]c(=O)c(=O)[nH]c3c2C1", "µM", 0.063]
]}

* * *

# TGT: Glutamate receptor ionotropic, AMPA (Rattus norvegicus, UniProt P19490+P19491+P19492+P19493)
pIC50: −log10 of the molar value.
ENDPOINT LABEL: pIC50

{"columns": ["COMPOUND", "RELATION QUALIFIER", "RESULT"],
 "data": [
  ["CCCCCCCN1CCc2c(ccc3[nH]c(=O)c(=O)[nH]c23)C1", "<", 4.00],
  ["CCC(C)CN1CCc2c(ccc3nc(O)c(O)nc23)C1 (stereo unspecified)", "<", 4.00],
  ["CCOC(=O)C(=O)N1CCCc2c1ccc1[nH]c(=O)c(=O)[nH]c21", "=", 4.89],
  ["CN1CCc2c(c([N+](=O)[O-])cc3[nH]c(=O)c(=O)[nH]c23)C1", "=", 6.54],
  ["O=c1[nH]c2cc(Br)c3c(c2[nH]c1=O)CNCC3", "=", 5.46],
  ["CC(C)CCN1CCc2c(Br)cc3nc(O)c(O)nc3c2C1", "=", 5.01]
]}

* * *

# TGT: Glutamate receptor ionotropic, AMPA (Rattus norvegicus, UniProt P19490+P19491+P19492+P19493)

{"columns": ["MOLECULE", "IC50"],
 "data": [
  ["O=c1[nH]c2cc(Br)c3c(c2[nH]c1=O)CCCN3", "9000 nM"],
  ["CCCN1CCc2c(c([N+](=O)[O-])cc3[nH]c(=O)c(=O)[nH]c23)C1", "2800 nM"],
  ["CCC(C)N1CCc2c(Br)cc3nc(O)c(O)nc3c2C1 (stereo unspecified)", "2500 nM"],
  ["CCc1cnc2c(O)nc3cc([N+](=O)[O-])c(-n4ccnc4)cc3n12", "20 nM"],
  ["CCOC(=O)c1nc2cc(Br)c3c(c2nc1O)CCN(C)C3", "> 100000 nM"],
  ["CN1CCc2c(ccc3[nH]c(=O)c(=O)[nH]c23)C1", "6500 nM"]
]}

* * *

# TGT: Glutamate receptor ionotropic, AMPA (Rattus norvegicus, UniProt P19490+P19491+P19492+P19493)
pIC50: −log10 of the molar value.
# key: entry, value: pIC50

{"columns": ["MOLECULE", "pIC50"],
 "data": [
  ["CN1Cc2c(S(=O)(=O)N(C)C)cc3c(N=O)c(O)[nH]c3c2C1", 6.22],
  ["CC(C)N1CCc2c([N+](=O)[O-])cc3[nH]c(=O)c(=O)[nH]c3c2C1", 6.82],
  ["CN1CCc2c(c(C(=O)O)cc3nc(O)c(O)nc23)C1", 4.25],
  ["O=c1[nH]c2ccc3c(c2[nH]c1=O)NCCC3", 5.66],
  ["COC(=O)c1cc2nc(O)c(O)nc2c2c1CN(C)CC2", 4.36],
  ["CCC(C)CN1CCc2c(c([N+](=O)[O-])cc3[nH]c(=O)c(=O)[nH]c23)C1 (stereo unspecified)", 5.89],
  ["CN1CCc2c(c(Br)cc3[nH]c(=O)c(=O)[nH]c23)C1", 5.73],
  ["CC(C)CCN1CCc2c([N+](=O)[O-])cc3[nH]c(=O)c(=O)[nH]c3c2C1", 6.96],
  ["CN1CCCc2c1ccc1nc(O)c(O)nc21", 4.62],
  ["O=C(NS(=O)(=O)c1ccccc1)c1nc2cc(Cl)c(Cl)cc2[nH]c1=O", 5.37],
  ["Cc1cc2[nH]c(=O)c(=O)[nH]c2c2c1CN(C)CC2", 4.75]
]}

* * *

# TGT: Glutamate receptor ionotropic, kainate
# ASSAY COMMENT: Binding affinity for the ionotropic glutamate receptor kainate in rat brain synaptic membranes using [3H]kainate as radioligand
# Assay type: cell membranes
pIC50: −log10 of the molar value.

{"columns": ["MOLECULE", "TGT", "pIC50"],
 "data": [
  ["CCCN1CCc2c(c(Br)cc3nc(O)c(O)nc23)C1", "Glutamate receptor ionotropic, kainate", 5.19],
  ["CCCN1CCc2c(ccc3[nH]c(=O)c(=O)[nH]c23)C1", "Glutamate receptor ionotropic, kainate", 4.64],
  ["CN1CCc2c(c(C(=O)O)cc3nc(O)c(O)nc23)C1", "Glutamate receptor ionotropic, kainate", 4.44],
  ["CC(C)CCN1CCc2ccc3nc(O)c(O)nc3c2C1", "Glutamate receptor ionotropic, kainate", 4.60],
  ["CCC(C)CN1CCc2c([N+](=O)[O-])cc3[nH]c(=O)c(=O)[nH]c3c2C1 (configuration not stated)", "Glutamate receptor ionotropic, kainate", 6.55],
  ["CN1CCc2c([N+](=O)[O-])cc3[nH]c(=O)c(=O)[nH]c3c2C1", "Glutamate receptor ionotropic, kainate", 6.43],
  ["CN1CCc2ccc3[nH]c(=O)c(=O)[nH]c3c2C1", "Glutamate receptor ionotropic, kainate", 4.15],
  ["CC(C)CCN1CCc2c([N+](=O)[O-])cc3[nH]c(=O)c(=O)[nH]c3c2C1", "Glutamate receptor ionotropic, kainate", 5.93],
  ["CCC(C)CN1CCc2c(ccc3nc(O)c(O)nc23)C1 (configuration not stated)", "Glutamate receptor ionotropic, kainate", 4.32],
  ["Oc1nc2ccc3c(c2nc1O)CCCN3", "Glutamate receptor ionotropic, kainate", 5.05],
  ["COC(=O)c1cc2nc(O)c(O)nc2c2c1CN(C)CC2", "Glutamate receptor ionotropic, kainate", 4.66],
  ["O=c1[nH]c2cc(Br)c3c(c2[nH]c1=O)CNCC3", "Glutamate receptor ionotropic, kainate", 5.82]
]}
